- System: Crude diglycosidase
- testDescription: Examination of substrate concentration in the conversion into isoflavone aglycons by diglycosidase using soybean materials;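 also: percent of the isoflavone family total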
- Type: biochemical, Penicillium multicolor IAM7153
- protocolConditions: soymilk, substrate concentration 10%, heat treatment of enzyme yes, reaction time 6 h
Decomposition efficiency: ratio of each glycoside/aglycon within its isoflavone family reference
endpointLabel: Decomposition efficiency: ratio of each glycoside/aglycon within its isoflavone family (%)

structureNotation	unitOfMeasurement	recordedValue
CC(=O)OC[C@H]1O[C@@H](Oc2cc(O)c3c(=O)c(-c4ccc(O)cc4)coc3c2)[C@H](O)[C@@H](O)[C@@H]1O	%	0.5
O=c1c(-c2ccc(O)cc2)coc2cc(O[C@@H]3O[C@H](CO)[C@@H](O)[C@H](O)[C@H]3O)ccc12	%	39.4
O=C(O)CC(=O)OC[C@H]1O[C@@H](Oc2cc(O)c3c(=O)c(-c4ccc(O)cc4)coc3c2)[C@H](O)[C@@H](O)[C@@H]1O	%	51.2
O=C(O)CC(=O)OC[C@H]1O[C@@H](Oc2ccc3c(=O)c(-c4ccc(O)cc4)coc3c2)[C@H](O)[C@@H](O)[C@@H]1O	%	47.8
COc1cc2c(=O)c(-c3ccc(O)cc3)coc2cc1O[C@@H]1O[C@H](COC(=O)CC(=O)O)[C@@H](O)[C@H](O)[C@H]1O	%	37.0
COc1cc2c(=O)c(-c3ccc(O)cc3)coc2cc1O[C@@H]1O[C@H](CO)[C@@H](O)[C@H](O)[C@H]1O	%	56.8
O=c1c(-c2ccc(O)cc2)coc2cc(O[C@@H]3O[C@H](CO)[C@@H](O)[C@H](O)[C@H]3O)cc(O)c12	%	37.6
COc1cc2c(=O)c(-c3ccc(O)cc3)coc2cc1O	%	6.2

// data source = patent US7118895B2
